Data origin, for the record: patent US20170224799A1

molecular target: H-2 K^d (mouse, UniProt P01902 22-305); test: competition with radiolabeled standard peptide, purified H-2 K^d
Sequence (P01902 22-305): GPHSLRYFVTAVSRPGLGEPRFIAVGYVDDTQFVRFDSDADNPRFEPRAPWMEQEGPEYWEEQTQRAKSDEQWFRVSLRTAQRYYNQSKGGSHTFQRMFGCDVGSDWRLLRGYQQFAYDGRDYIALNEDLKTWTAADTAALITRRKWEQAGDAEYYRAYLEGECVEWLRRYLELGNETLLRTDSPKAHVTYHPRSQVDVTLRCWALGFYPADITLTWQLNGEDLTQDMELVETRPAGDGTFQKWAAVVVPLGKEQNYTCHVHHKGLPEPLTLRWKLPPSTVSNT
Checkbox rule: IC50 lower than 10000 nM = TRUE; IC50 not lower than 10000 nM = FALSE.

As a guide, the following entries are already answered.
{"BINDER": "LDMLQALC [Tnpo3.4 WT peptide LDMLQALC]", "CLASS_NAME": "TRUE"}
{"BINDER": "LDMLQALCIP [Tnpo3.3 WT peptide LDMLQALCIP]", "CLASS_NAME": "TRUE"}
{"BINDER": "SYMLQALC [Tnpo3.4 Mut peptide SYMLQALC]", "CLASS_NAME": "FALSE"}

Please find the next binder below.
Consider SYMLQALCIP [Tnpo3.3 Mut peptide SYMLQALCIP] . Does its IC50 lie strictly below 10000 nM? TRUE
